Reference source for all entries: ChEMBL document CHEMBL1138423

# system.under.test: Tyrosinase (Agaricus bisporus)
# Sequence (O42713 whole entry): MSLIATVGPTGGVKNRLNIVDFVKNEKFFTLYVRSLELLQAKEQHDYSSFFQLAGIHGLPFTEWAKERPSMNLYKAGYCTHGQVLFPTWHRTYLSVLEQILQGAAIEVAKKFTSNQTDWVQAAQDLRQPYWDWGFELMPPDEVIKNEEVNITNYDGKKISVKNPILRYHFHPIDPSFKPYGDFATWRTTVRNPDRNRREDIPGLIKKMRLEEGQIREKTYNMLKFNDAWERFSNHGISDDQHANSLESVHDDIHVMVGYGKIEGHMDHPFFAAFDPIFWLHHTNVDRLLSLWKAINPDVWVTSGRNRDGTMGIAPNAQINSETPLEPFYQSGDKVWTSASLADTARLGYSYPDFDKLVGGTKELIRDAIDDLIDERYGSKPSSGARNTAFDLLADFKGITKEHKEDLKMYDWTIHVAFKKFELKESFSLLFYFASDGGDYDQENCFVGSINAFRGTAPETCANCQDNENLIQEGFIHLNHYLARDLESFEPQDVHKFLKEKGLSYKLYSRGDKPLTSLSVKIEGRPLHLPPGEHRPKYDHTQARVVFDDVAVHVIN
pIC50: −log10 of the molar value.
Items are presented alongside their recorded pIC50.

{"compound": "CC[C@]1(O)CC[C@H]2[C@@H]3CCC4=CC(=O)CC[C@]4(C)[C@H]3CC[C@@]21C", "pIC50": 5.82}
{"compound": "CC[C@]1(O)CC[C@H]2[C@@H]3CCC4=CC(=O)C=C[C@]4(C)[C@H]3CC[C@@]21C", "pIC50": 5.46}
{"compound": "CC[C@]1(O)CC[C@H]2[C@@H]3CCC4=CC(=O)CC[C@]4(C)[C@H]3[C@H](O)C[C@@]21C", "pIC50": 5.76}
{"compound": "C#CC1(O)CC[C@H]2[C@@H]3CCC4=CC(=O)CC[C@]4(C)[C@H]3[C@H](O)C[C@@]21C (single isomer, unassigned)", "pIC50": 5.23}
{"compound": "C#CC1(O)CC[C@H]2[C@@H]3CCC4=CC(=O)CC[C@]4(C)[C@H]3CC[C@@]21C (single isomer, unassigned) [ETHISTERONE]", "pIC50": 5.58}
{"compound": "C#CC1(O)CC[C@H]2[C@@H]3CCC4=CC(=O)C=C[C@]4(C)[C@H]3CC[C@@]21C (single isomer, unassigned)", "pIC50": 5.10}
